System: Engineered strains of E. coli
Format: cell-based
Conditions: after solvent exposure, vs positive control
Label true when change in expression of gene gabD is at or above 0.1; anything below gets false.

Reference set, count: 6
1) C1=CCCCC1: true
2) CC(C)=O: true
3) CC(C)CO: false
4) CCC(C)CC: true
5) C=C(C)C: false
6) CCCCCC: false

-- ask Test whether the molecule C=CC(C)CC (stereo not shown) records change in expression of gene gabD of 0.1 or higher.
-- reply false

###

Tested on: Engineered strains of E. coli
Format: cell-based
Quantity measured: expression of galactitol metabolism genes gatABD

1. CCCCCC [hexane]: upregulated
2. CCC(C)CC [3-methylpentane]: upregulated
3. C=CC(C)CC (stereo not shown) [3-methyl-1-pentene]: upregulated
4. C1=CCCCC1 [cyclohexene]: upregulated

###

System: Engineered strains of E. coli
Format: cell-based
Conditions: after solvent exposure, vs positive control
List of change in expression of gene coaD values.
Could you keep your reply to the number by itself?

1) CCC(C)CC: 1.13

-- ask Dear colleague, please send me the reported change in expression of gene coaD for C=C(C)C when you can.
-- reply −3.52

-- ask Dear colleague, please send me the reported change in expression of gene coaD for C1=CCCCC1 when you can.
-- reply 1.34

-- ask Dear colleague, please send me the reported change in expression of gene coaD for CC(C)CO when you can.
-- reply −1.68

-- ask Dear colleague, please send me the reported change in expression of gene coaD for CCCCCC when you can.
-- reply 0.57

-- ask Dear colleague, please send me the reported change in expression of gene coaD for CC(C)=O when you can.
-- reply 0.05

-- ask Dear colleague, please send me the reported change in expression of gene coaD for C=CC(C)CC (stereo not shown) when you can.
-- reply 0.47

###

Tested on: Engineered strains of E. coli
Type: cell-based
Settings: after solvent exposure, vs positive control
Quantity measured: change in expression of gene rpoC
Could you keep your reply to the number by itself?

For orientation, consider the following solved cases.
1) C=CC(C)CC (stereo not shown) [3-methyl-1-pentene]: 0.99
2) C1=CCCCC1 [cyclohexene]: 1.15
3) C=C(C)C [isobutene]: −0.44

-- ask Dear colleague, please send me the reported change in expression of gene rpoC for CCCCCC [hexane] when you can.
-- reply 1.02

###

Test system: Engineered strains of E. coli
Assay type: cell-based
Details: after solvent exposure, vs positive control
List of change in expression of gene gadB values.
Could you keep your reply to the number by itself?

-- ask Dear colleague, please send me the reported change in expression of gene gadB for C1=CCCCC1 when you can.
-- reply 0.17

-- ask Dear colleague, please send me the reported change in expression of gene gadB for CC(C)=O when you can.
-- reply 4.53

###

System: Engineered strains of E. coli
Format: cell-based
Details: after solvent exposure, vs positive control
Label 1 (yes) when change in expression of gene tatE is at or above 0.7; anything below gets 0 (no).

1) CC(C)=O [acetone]: 0 (no)
2) C1=CCCCC1 [cyclohexene]: 0 (no)
3) C=CC(C)CC (stereo not shown) [3-methyl-1-pentene]: 0 (no)

-- ask Test whether the compound CCCCCC [hexane] records change in expression of gene tatE of 0.7 or higher.
-- reply 1 (yes)

-- ask Test whether the compound CCC(C)CC [3-methylpentane] records change in expression of gene tatE of 0.7 or higher.
-- reply 1 (yes)

###

Tested on: Engineered strains of E. coli
Assay type: cell-based
Conditions: after solvent exposure, vs positive control
List of change in expression of gene clpA values.
Could you keep your reply to the number by itself?

1. CCC(C)CC: 2.69

-- ask Dear colleague, please send me the reported change in expression of gene clpA for CCCCCC when you can.
-- reply 2.49

-- ask Dear colleague, please send me the reported change in expression of gene clpA for C1=CCCCC1 when you can.
-- reply 4.12

-- ask Dear colleague, please send me the reported change in expression of gene clpA for C=CC(C)CC (stereo not shown) when you can.
-- reply 3.44

-- ask Dear colleague, please send me the reported change in expression of gene clpA for C=C(C)C when you can.
-- reply 1.73

-- ask Dear colleague, please send me the reported change in expression of gene clpA for CC(C)CO when you can.
-- reply 2.07

###

Tested on: Engineered strains of E. coli
Assay type: cell-based
Conditions: after solvent exposure, vs positive control
Rule: change in expression of gene lhgO below 1 gives satisfied, anything at or above gives not satisfied.

-- ask Does this compound meet the criterion change in expression of gene lhgO < 1? C1=CCCCC1 [cyclohexene]
-- reply not satisfied

-- ask Does this compound meet the criterion change in expression of gene lhgO < 1? C=CC(C)CC (stereo not drawn) [3-methyl-1-pentene]
-- reply satisfied

-- ask Does this compound meet the criterion change in expression of gene lhgO < 1? C=C(C)C [isobutene]
-- reply satisfied

###

List of change in expression of gene rpoD values.
System: Engineered strains of E. coli
Format: cell-based
Conditions: after solvent exposure, vs positive control
Could you keep your reply to the number by itself?

For orientation, consider the following solved cases.
1) CCC(C)CC: 3.38
2) C=CC(C)CC (stereo not shown): 3.68
3) CC(C)=O: 1.41

-- ask Dear colleague, please send me the reported change in expression of gene rpoD for C1=CCCCC1 when you can.
-- reply 4.75

-- ask Dear colleague, please send me the reported change in expression of gene rpoD for C=C(C)C when you can.
-- reply −0.24

-- ask Dear colleague, please send me the reported change in expression of gene rpoD for CC(C)CO when you can.
-- reply 1.30

-- ask Dear colleague, please send me the reported change in expression of gene rpoD for CCCCCC when you can.
-- reply 3.14

###

List of change in expression of gene flgF values.
System: Engineered strains of E. coli
Assay type: cell-based
Conditions: after solvent exposure, vs positive control
Could you keep your reply to the number by itself?

For orientation, consider the following solved cases.
1. CCC(C)CC: −2.66
2. C=CC(C)CC (stereo not shown): −3.45
3. C1=CCCCC1: −2.88
4. CC(C)=O: −2.98
5. C=C(C)C: −7.63

-- ask Dear colleague, please send me the reported change in expression of gene flgF for CCCCCC when you can.
-- reply −5.93

-- ask Dear colleague, please send me the reported change in expression of gene flgF for CC(C)CO when you can.
-- reply −5.18

###

System: Engineered strains of E. coli
Type: cell-based
Conditions: after solvent exposure, vs positive control
Quantity measured: change in expression of gene flgG
Could you keep your reply to the number by itself?

For orientation, consider the following solved cases.
1) C=CC(C)CC (stereo not shown) [3-methyl-1-pentene]: −4.32
2) CC(C)=O [acetone]: −4.98
3) CC(C)CO [isobutanol]: −6.73

-- ask Dear colleague, please send me the reported change in expression of gene flgG for C1=CCCCC1 [cyclohexene] when you can.
-- reply −2.77

-- ask Dear colleague, please send me the reported change in expression of gene flgG for CCC(C)CC [3-methylpentane] when you can.
-- reply −3.06

-- ask Dear colleague, please send me the reported change in expression of gene flgG for CCCCCC [hexane] when you can.
-- reply −5.59

-- ask Dear colleague, please send me the reported change in expression of gene flgG for C=C(C)C [isobutene] when you can.
-- reply −6.35

###

System: Engineered strains of E. coli
Type: cell-based
Details: after solvent exposure, vs positive control
Quantity measured: change in expression of gene glpB
Could you keep your reply to the number by itself?

For orientation, consider the following solved cases.
1. CCCCCC: 5.40
2. CC(C)CO: 2.96
3. CC(C)=O: 2.81
4. C=CC(C)CC (stereo not shown): 4.86
5. C=C(C)C: 6.10
6. CCC(C)CC: 5.89

In the following, a different molecule is considered.
-- ask Dear colleague, please send me the reported change in expression of gene glpB for C1=CCCCC1 when you can.
-- reply 4.64

###

System: Engineered strains of E. coli
Type: cell-based
Settings: after solvent exposure, vs positive control
Quantity measured: change in expression of gene adiC
Could you keep your reply to the number by itself?

1) CC(C)CO: −2.56
2) C=CC(C)CC (stereo not shown): −4.45
3) CC(C)=O: −0.54
4) CCCCCC: −4.53
5) C=C(C)C: −1.83

-- ask Dear colleague, please send me the reported change in expression of gene adiC for CCC(C)CC when you can.
-- reply −1.60

-- ask Dear colleague, please send me the reported change in expression of gene adiC for C1=CCCCC1 when you can.
-- reply −1.64

###

Test system: Engineered strains of E. coli
Format: cell-based
Conditions: after solvent exposure, vs positive control
List of change in expression of gene rpoE values.
Could you keep your reply to the number by itself?

1. C=C(C)C: −1.87

-- ask Using Engineered strains of E. coli as the test system, report measured change in expression of gene rpoE of C=CC(C)CC (stereo not shown) .
-- reply −2.04

-- ask Using Engineered strains of E. coli as the test system, report measured change in expression of gene rpoE of CCCCCC .
-- reply −2.64

-- ask Using Engineered strains of E. coli as the test system, report measured change in expression of gene rpoE of CC(C)=O .
-- reply −0.26

-- ask Using Engineered strains of E. coli as the test system, report measured change in expression of gene rpoE of CCC(C)CC .
-- reply −2.07

-- ask Using Engineered strains of E. coli as the test system, report measured change in expression of gene rpoE of CC(C)CO .
-- reply −1.10

-- ask Using Engineered strains of E. coli as the test system, report measured change in expression of gene rpoE of C1=CCCCC1 .
-- reply 1.44
